Overview of recorded inhibition of cell viability for various molecules
tested on: NCI-H1688; test: inhibition of cell viability relative to untreated control (fraction); higher = stronger growth inhibition, active = 0.5 or more; conditions: 30 µM; 24 h
Structures can show the parent of a compound that is named as a salt.
observed.property: inhibition of cell viability

molecule	measured.on	recorded.value
COc1ccc2c(c1OC)CN1CCc3cc4c(cc3C1C2)OCO4 (stereo not given) [Tetrahydroberberine THB]	NCI-H1688	0.0966
COc1ccc(CC2NCCc3cc(OC)c(OC)cc32)cc1OC (stereo not given) [Tetrahydropapaverine hydrochloride]	NCI-H1688	0.125
COc1cc(C2OCC3C(c4cc(OC)c(O[C@@H]5O[C@H](CO)[C@@H](O)[C@H](O)[C@H]5O)c(OC)c4)OCC23)cc(OC)c1O[C@H]1O[C@@H](CO)[C@H](O)[C@@H](O)[C@@H]1O (stereo not given in full) [Eleutheroside E]	NCI-H1688	0.231
Cc1c2ccncc2c(C)c2c1[nH]c1ccccc12	NCI-H1688	0.996
CN1[C@@H]2CC[C@H]1C[C@@H](OC(=O)[C@H](CO)c1ccccc1)C2	NCI-H1688	0.305
C[C@H]1CCC/C=C/[C@@H]2C[C@H](O)C[C@H]2[C@H](O)/C=C/C(=O)O1	NCI-H1688	0.704
COc1cc([C@@H]2c3cc4c(cc3[C@@H](O)[C@H]3COC(=O)[C@H]23)OCO4)cc(OC)c1O [4'-Demethylepipodophyllotoxin]	NCI-H1688	0.568
C[C@@H]1CC[C@@]2(OC1)O[C@H]1[C@@H](O)[C@H]3[C@@H]4CC[C@H]5C[C@@H](O[C@@H]6O[C@H](CO)[C@H](O[C@@H]7O[C@H](CO)[C@@H](O)[C@H](O[C@@H]8OC[C@@H](O)[C@H](O)[C@H]8O)[C@H]7O[C@@H]7O[C@H](CO)[C@H](O)[C@H](O[C@@H]8O[C@H](CO)[C@@H](O)[C@H](O)[C@H]8O)[C@H]7O)[C@H](O)[C@H]6O)[C@H](O)C[C@]5(C)[C@H]4CC[C@]3(C)[C@H]1[C@@H]2C	NCI-H1688	1.01
COC1=C[C@@H]2[C@@H]3Cc4ccc(OC)c(O)c4[C@]2(CCN3C)CC1=O [Sinomenine hydrochloride]	NCI-H1688	-0.0195
O=C1C=CC[C@@H]2[C@H]3CCC[N+]4([O-])CCC[C@@H](CN12)[C@@H]34 (stereo not given in full)	NCI-H1688	-0.0366

---

system: NCI-H1688; experiment: inhibition of cell viability relative to untreated control (fraction); higher = stronger growth inhibition, active = 0.5 or more; settings: 30 µM; 24 h
y if inhibition of cell viability is below -0.04. n if not; exact matches included in n.

molecule	group.label
O=C1C=CC[C@@H]2[C@H]3CCCN4CCC[C@@H](CN12)[C@@H]34 [Sophocarpine]	y
COc1ccc2c(c1O)-c1c(OC)c(OC)cc3c1[C@H](C2)N(C)CC3 [S-Isocorydine(+)]	n
CCCCCCCCC(=O)NCc1ccc(O)c(OC)c1 [Nonivamide]	n
C[C@]12CCC(=O)C=C1CC[C@@H]1[C@@H]2C(=O)C[C@]2(C)C(=O)CC[C@@H]12 [Adrenosterone]	y
COc1cc([C@@H]2c3cc4c(cc3[C@H](O)[C@H]3COC(=O)[C@H]23)OCO4)cc(OC)c1OC [Podophyllotoxin]	n
COc1cc(OC)c(OC)cc1C=O [Asarylaldehyde]	y
C=C[C@H]1CN2CC[C@H]1C[C@H]2[C@H](O)c1ccnc2ccccc12 [Cinchonidine]	y
CNC(=O)Oc1ccc2c(c1)[C@]1(C)CCN(C)[C@@H]1N2C [Physostigmine Salicylate]	n

Taken from the supplement of paper PMC11634586.
